testProtocol: Aqueous kinetic solubility in PBS pH 7.4
Format: physicochemical
settings: phosphate buffered saline (PBS), pH 7.4, Kinetic solubility Sk, PBS pH 7.4, 25 °C, 24 h, target 250 µM, 2.5 % DMSO
measuredMetric: solubility kinetic at 24 h

Reference set, count: 2
I am curious: what solubility kinetic at 24 h value has been reported for O=C(NCCNC(=S)Nc1ccc(O)c(O)c1)c1cc(=O)c2c(O)cccc2o1 [Compound 17] ? 1 µM

// lookup solubility kinetic at 24 h for O=C(Oc1ccc(O)c(O)c1)c1cc(=O)c2c(O)cccc2o1 [Compound 14] 1 µM

---
Please report the recorded solubility kinetic at 24 h for O=c1cc(/C=C/c2ccc(O)c(O)c2)oc2cccc(O)c12 [Compound 12] . 1 µM
